procedure text: chemical genetic growth profiling, strain panel (AID 1159580);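 also: tested at 20 µM; growth read once vehicle control cultures reached saturation at 30 °C; 1 = growth at the plate median or of vehicle wells; lower values mean less growth of the strain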
run conditions: S. cerevisiae deletion strains, growth OD, locus YDL185W, strain tfp1, hits give low values
The whole screen tested about 5,500 compounds, of which about 2,000 (36%) were called active. Another 18% or so got no clear call; they are omitted. The list shows a part of the results.
// normalized growth lookup, one value per entry
Provide a numeric answer; units are not to be included.

* NC(N)=NC(=O)c1nc(Cl)c(N)nc1N | 1.03
* NC(=O)NCCCC(N)C(=O)O (configuration not stated) | 0.994
* Oc1ccc2c(c1)OCC1(O)Cc3cc(O)c(O)cc3C21 (configuration not stated) | 0.964
* CC(=O)OC1CN2CCC1CC2 (configuration not stated) | 0.965
* NC(N)=NC(=O)c1nc(Cl)c(N2CCCCCC2)nc1N | 1.02

response.value for CC(=O)Oc1ccc2c(c1OC(C)=O)OCC1(O)Cc3c(cc(OC(C)=O)c(OC(C)=O)c3OC(C)=O)C21 (configuration not stated) (field: normalized growth) = 0.955

response.value for CC(CC(O)C1OC1(C)C)[C@@H]1CCC2(C)C3=CCC4C(C)(C)C(=O)CCC4(C)C3CC[C@@]12C (some centres not stated) (field: normalized growth) = 1.03

response.value for OCC(O)C(O)C(O)C(O)C(O)CO (configuration not stated) (field: normalized growth) = 0.954

response.value for O=C1C=C2C(=CCOC2O)O1 (configuration not stated) (field: normalized growth) = 0.789

response.value for Oc1cc2c(cc1O)C1c3ccc(O)c(O)c3OCC1(O)C2 (configuration not stated) (field: normalized growth) = 0.961

response.value for CN(C)c1nc(N)c(C(=O)N=C(N)N)nc1Cl (field: normalized growth) = 1.01

response.value for NC(=NCCC[C@H](N)C(=O)O)N[N+](=O)[O-] (field: normalized growth) = 1.01

----------
// normalized growth lookup, one value per entry
procedure text: chemical genetic growth profiling, strain panel (AID 1159580);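 also: tested at 20 µM; growth read once vehicle control cultures reached saturation at 30 °C; 1 = growth at the plate median or of vehicle wells; lower values mean less growth of the strain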
run conditions: S. cerevisiae deletion strains, growth OD, locus YAL013W, strain DEP1, hits give low values
The campaign covered roughly 5,500 compounds. About 2,000 (36%) were called active. Inconclusive results (about 18%) are left out. The list shows a part of the results.
Provide a numeric answer; units are not to be included.

• COc1cc(OC)c2ccc(=O)oc2c1 = 1.01
• CC1CCC2(OC1)OC1CC3C4CC[C@H]5C[C@@H](O)CC[C@]5(C)C4CC(=O)[C@]3(C)C1C2C (some centres undefined) = 1.01
• CN(C)C=Nc1nnc(Sc2nc3cc(Cl)ccc3s2)s1 = 0.939
• ON=C(c1cccs1)c1cccs1 = 0.947

response.value for O=C(O[C@@H]1Cc2c(O)cc(O)cc2O[C@@H]1c1cc(O)c(=O)c2c(O)c(O)cc([C@H]3Oc4cc(O)cc(O)c4C[C@H]3OC(=O)c3cc(O)c(O)c(O)c3)c2c1)c1cc(O)c(O)c(O)c1 (field: normalized growth) = 0.633

response.value for N#CC(C#N)=Cc1ccc(O)c(O)c1 (field: normalized growth) = 1

response.value for CCOC(=O)C1=C(N)Oc2ccc(Br)cc2C1C(C#N)C(=O)OCC (centres undefined) (field: normalized growth) = 0.934

response.value for O=S(=O)(Oc1cc(Cl)cc(Cl)c1)c1cccc(S(=O)(=O)Oc2cc(Cl)cc(Cl)c2)c1 (field: normalized growth) = 1.01

response.value for C[C@]12CC[C@@H]3c4ccc(O)cc4CC[C@H]3[C@@H]1CC[C@@H]2O (field: normalized growth) = 1

response.value for CC1(C)C(=O)C=C[C@@]2(C)C1C=C[C@]1(C)C2CC[C@@]2(C)[C@H](c3ccoc3)OC(=O)C3OC321 (some centres undefined) (field: normalized growth) = 0.949

response.value for C[C@]12CCC3c4ccc(O)cc4CCC3C1CC[C@@H]2O (some centres undefined) (field: normalized growth) = 1.01
